# IC50 values compiled below
- system.name: hAR (human androgen receptor) (Homo sapiens, UniProt P10275)
- Construct: made in house; host or cells: baculovirus/Sf9 insect cells
- experiment.description: Competitive binding analysis on baculovirus/Sf9 generated hAR extracts with 3H-DHT tracer
Record the value in nM, omitting the unit from your answer.

Reference set (3 entries):
>>> value_reported("C[C@H](O)CC[C@H](C)Oc1ccc(C#N)c(C(F)(F)F)c1 [Example 23]")
41
>>> value_reported("C[C@H](O)C[C@H](C)Oc1ccc(C#N)c(C(F)(F)F)c1 [Example 16]")
6
>>> value_reported("C[C@H](C[C@@H](C)O)Oc1ccc(C#N)c(C(F)(F)F)c1 [Example 17]")
107

Here is another compound to look at.
Name the reported IC50 value associated with the compound CC(C)C(O)C(C)(C)COc1ccc(C#N)c(Cl)c1 (stereo not shown) [Example 27]
63

----------
- system.name: hAR (human androgen receptor) (Homo sapiens)
- Construct: made in house; host or cells: baculovirus/Sf9 insect cells
- Sequence (P10275 1-920): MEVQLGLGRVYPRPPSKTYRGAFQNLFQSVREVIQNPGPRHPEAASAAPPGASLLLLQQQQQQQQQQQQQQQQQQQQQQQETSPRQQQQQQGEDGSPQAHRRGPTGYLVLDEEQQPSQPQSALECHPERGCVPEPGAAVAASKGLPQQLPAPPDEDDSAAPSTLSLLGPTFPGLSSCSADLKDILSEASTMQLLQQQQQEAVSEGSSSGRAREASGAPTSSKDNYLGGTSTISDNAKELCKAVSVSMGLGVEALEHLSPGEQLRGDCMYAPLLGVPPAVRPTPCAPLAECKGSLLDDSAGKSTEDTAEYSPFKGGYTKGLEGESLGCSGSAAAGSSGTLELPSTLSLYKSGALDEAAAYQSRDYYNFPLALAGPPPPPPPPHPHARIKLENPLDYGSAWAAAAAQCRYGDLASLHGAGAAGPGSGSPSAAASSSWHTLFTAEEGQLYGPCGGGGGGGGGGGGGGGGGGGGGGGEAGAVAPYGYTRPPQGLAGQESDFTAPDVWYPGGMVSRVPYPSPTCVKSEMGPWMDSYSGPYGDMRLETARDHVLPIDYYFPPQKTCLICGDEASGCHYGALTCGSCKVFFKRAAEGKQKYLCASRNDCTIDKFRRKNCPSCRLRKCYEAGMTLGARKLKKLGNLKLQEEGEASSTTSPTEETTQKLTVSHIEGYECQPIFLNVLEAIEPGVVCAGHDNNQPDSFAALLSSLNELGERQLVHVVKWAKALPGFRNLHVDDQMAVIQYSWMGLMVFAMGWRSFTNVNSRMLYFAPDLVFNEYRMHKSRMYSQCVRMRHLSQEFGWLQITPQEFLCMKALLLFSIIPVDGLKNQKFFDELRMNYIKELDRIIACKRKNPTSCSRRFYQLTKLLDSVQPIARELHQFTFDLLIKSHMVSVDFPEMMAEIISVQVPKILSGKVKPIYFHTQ
- experiment.description: Competitive binding analysis on baculovirus/Sf9 generated hAR extracts with 3H-DHT tracer
- condition.set: hAR extract, 1 nM 3H-DHT, one hour at 4° C.; mean of multiple tests; read-out: AR Binding IC50
Binary call on IC50 with cut-off 0.3 µM: strictly below means YES, and equality or higher means NO.

Example cases with answers are listed next.
>>> answer_label("CC(C)CCCC(O)COc1ccc(C#N)c(C(F)(F)F)c1 (stereo not drawn)")
"NO"
>>> answer_label("C=CCC(O)CCOc1ccc(C#N)c(C(F)(F)F)c1 (stereo not drawn)")
"YES"
>>> answer_label("CCCC(O)CCCOc1ccc(C#N)c(C(F)(F)F)c1 (stereo not drawn)")
"YES"
>>> answer_label("CC(O)CCCCOc1ccc(C#N)c(C(F)(F)F)c1 (stereo not drawn)")
"NO"
>>> answer_label("CCCC(O)C(CC)COc1ccc(C#N)c(C(F)(F)F)c1 (stereo not drawn)")
"YES"

Dear colleague, could you confirm whether IC50 of C=CC(CO)Oc1ccc(C#N)c(Cl)c1 (stereo not drawn) falls below 0.3 µM? Thanks.
YES

Dear colleague, could you confirm whether IC50 of CC(C)(CO)COc1ccc(C#N)c(C(F)(F)F)c1 falls below 0.3 µM? Thanks.
NO

Dear colleague, could you confirm whether IC50 of CC(C)C(O)C(C)(C)COc1ccc(C#N)c(C(F)(F)F)c1 (stereo not drawn) falls below 0.3 µM? Thanks.
NO

Dear colleague, could you confirm whether IC50 of C=CCCCCC(O)COc1ccc(C#N)c(C(F)(F)F)c1 (stereo not drawn) falls below 0.3 µM? Thanks.
NO

----------
- system.name: androgen receptor (Homo sapiens, UniProt P10275)
- Sequence (P10275 1-920 Q868H): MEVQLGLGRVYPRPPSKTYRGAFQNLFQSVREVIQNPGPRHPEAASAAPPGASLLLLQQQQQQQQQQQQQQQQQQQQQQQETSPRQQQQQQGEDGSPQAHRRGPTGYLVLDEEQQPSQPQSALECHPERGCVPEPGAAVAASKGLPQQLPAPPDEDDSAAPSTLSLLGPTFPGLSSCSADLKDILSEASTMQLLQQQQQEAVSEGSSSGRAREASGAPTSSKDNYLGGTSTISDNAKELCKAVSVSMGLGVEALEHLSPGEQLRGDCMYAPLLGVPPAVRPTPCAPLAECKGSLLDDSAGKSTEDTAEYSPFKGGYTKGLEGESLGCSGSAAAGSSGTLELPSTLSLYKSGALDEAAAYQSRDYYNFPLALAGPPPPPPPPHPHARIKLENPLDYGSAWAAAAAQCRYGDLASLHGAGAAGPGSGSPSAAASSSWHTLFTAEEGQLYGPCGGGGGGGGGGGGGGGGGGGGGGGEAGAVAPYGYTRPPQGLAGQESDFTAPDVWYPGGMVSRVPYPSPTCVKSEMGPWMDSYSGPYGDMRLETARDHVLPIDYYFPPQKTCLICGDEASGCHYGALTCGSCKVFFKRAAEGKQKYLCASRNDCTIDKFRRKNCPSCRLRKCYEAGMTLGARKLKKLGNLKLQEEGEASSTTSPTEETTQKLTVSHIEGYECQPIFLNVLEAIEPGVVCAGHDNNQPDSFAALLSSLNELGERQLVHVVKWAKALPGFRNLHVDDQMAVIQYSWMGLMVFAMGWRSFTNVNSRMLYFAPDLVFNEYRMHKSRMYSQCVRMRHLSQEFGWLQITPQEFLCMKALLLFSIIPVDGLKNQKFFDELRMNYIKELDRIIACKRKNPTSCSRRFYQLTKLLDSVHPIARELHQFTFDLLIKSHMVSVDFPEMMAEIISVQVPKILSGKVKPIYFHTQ
- experiment.description: AR antagonist cell assay, MDA-MB453-MMTV clone 54-19 luciferase reporter
- Format: cell-based
- condition.set: MDA-MB453-MMTV clone 54-19, 100 pM DHT, 17 hr; mean of multiple tests; read-out: AR Cell IC50
measure: IC50

Reference set (3 entries):
>>> value_reported("N#Cc1ccc(OCCCCCO)cc1C(F)(F)F")
"> 1000 nM"
>>> value_reported("CC(O)C(C)COc1ccc(C#N)c(C(F)(F)F)c1 (centres unmarked)")
"274 nM"
>>> value_reported("CC(O)CCOc1ccc(C#N)c(C(F)(F)F)c1 (centres unmarked)")
"> 1000 nM"

Here is another compound to look at.
Provide value of IC50 for this record tested with androgen receptor (Homo sapiens, UniProt P10275): CCCCCCC(O)COc1ccc(C#N)c(C(F)(F)F)c1 (centres unmarked)
509 nM

----------
# IC50 values compiled below
- system.name: androgen receptor (Homo sapiens)
- experiment.description: AR antagonist cell assay, MDA-MB453-MMTV clone 54-19 luciferase reporter
- Assay type: cell-based
- condition.set: read-out: AR Cell IC50; MDA-MB453-MMTV clone 54-19, 100 pM DHT, 17 hr; mean of multiple tests

>>> value_reported("CC(C)C(O)C(C)(C)COc1ccc(C#N)c(Cl)c1 (stereo not drawn)")
"0.04 nM"
>>> value_reported("CC(O)CCC(C)Oc1ccc(C#N)c(C(F)(F)F)c1 (stereo not drawn)")
"> 1000 nM"

Here is another compound to look at.
Name the reported IC50 value associated with the compound CC(O)CCCOc1ccc(C#N)c(C(F)(F)F)c1 (stereo not drawn)
> 1000 nM

----------
- system.name: hAR (human androgen receptor) (Homo sapiens, UniProt P10275)
- Construct: made in house; host or cells: baculovirus/Sf9 insect cells
- experiment.description: Competitive binding analysis on baculovirus/Sf9 generated hAR extracts with 3H-DHT tracer
- condition.set: hAR extract, 1 nM 3H-DHT, one hour at 4° C.; mean of multiple tests; read-out: AR Binding IC50
measure: pIC50
Remember the convention: pIC50 equals -log10 of concentration in molar.

Name the reported pIC50 value associated with the compound CCCCC(COc1ccc(C#N)c(C(F)(F)F)c1)C(C)O (centres unmarked) [Example 15]
6.68

Name the reported pIC50 value associated with the compound CC(O)CCC(C)Oc1ccc(C#N)c(C(F)(F)F)c1 (centres unmarked) [Example 22]
6.73

Name the reported pIC50 value associated with the compound N#Cc1ccc(OCCCCCO)cc1C(F)(F)F [Example 24]
6.20

Name the reported pIC50 value associated with the compound C[C@H](O)CCOc1ccc(C#N)c(C(F)(F)F)c1 [Example 8]
6.67

Name the reported pIC50 value associated with the compound CC(O)CCOc1ccc(C#N)c(C(F)(F)F)c1 (centres unmarked) [Example 7]
6.56

Data origin: patent US7576128B2
